Below, each of the compounds is paired with its reported EC50 value.
# study_system: JAK2 (Homo sapiens)
# Construct: All four purified enzymes contain only the catalytic domain; His (N)
# protocol_text: JAK2 kinase assay (HTRF, inhibition of phosphorylation of a synthetic peptide)
# settings: catalytic domain, His-tag; 4 μM ATP (Km); read-out: JAK2 kinase inhibitory activity (EC50)
endpoint_label: EC50

* Cc1ccc(S(=O)(=O)N2CCCN(c3ncnc4[nH]ccc34)CC23CC3)cc1 [Example 94] | > 1000 nM
* CC1CN(c2ncnc3[nH]ccc23)CC2(CC2)CN1 (stereo not drawn) [Example 293] | > 1000 nM
* Cc1ncoc1C(=O)N1CCCN(c2ncnc3[nH]ccc23)CC12CC2 [Example 192] | 100 to 1000 nM
* Cn1cncc1C(=O)N1CCCN(c2ncnc3[nH]ccc23)CC12CC2 [Example 145] | 100 to 1000 nM
* Cc1sc(C(=O)N2CCN(c3ncnc4[nH]ccc34)CC3(CC3)C2)cc1S(N)(=O)=O [Example 24] | < 100 nM
* NS(=O)(=O)c1ccc(C(=O)N2CCN(c3ncnc4[nH]ccc34)CC3(CC3)C2)cc1Cl [Example 32] | 100 to 1000 nM
* O=C(c1cccc(Cl)c1)N1CCCN(c2ncnc3[nH]ccc23)CC12CC2 [Example 179] | < 100 nM
* O=C(Cc1cncs1)N1CCN(c2ncnc3[nH]ccc23)CC2(CC2)C1 [Example 252] | < 100 nM
* N#Cc1ccc(C(=O)N2CCN(c3ncnc4[nH]ccc34)CC3(CC3)C2)s1 [Example 51] | < 100 nM

----------
# study_system: JAK3 (Homo sapiens, UniProt P52333)
# Construct: All four purified enzymes contain only the catalytic domain; His (N)
# Sequence (P52333 822-1111 limits assumed): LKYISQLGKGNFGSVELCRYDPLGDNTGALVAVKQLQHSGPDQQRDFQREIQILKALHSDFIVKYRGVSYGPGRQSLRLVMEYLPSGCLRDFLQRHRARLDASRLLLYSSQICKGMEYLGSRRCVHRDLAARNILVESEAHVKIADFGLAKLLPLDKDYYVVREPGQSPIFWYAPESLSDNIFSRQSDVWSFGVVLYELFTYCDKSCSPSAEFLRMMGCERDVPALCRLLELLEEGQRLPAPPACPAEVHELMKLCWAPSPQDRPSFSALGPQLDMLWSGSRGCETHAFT
# protocol_text: JAK3 kinase assay (HTRF, inhibition of phosphorylation of a synthetic peptide)
# settings: catalytic domain, His-tag; 2 μM ATP (Km); read-out: JAK3 kinase inhibitory activity (EC50)
endpoint_label: EC50

- N#CCc1ccccc1C(=O)N1CCN(c2ncnc3[nH]ccc23)CCC12CC2: > 1000 nM
- Cc1cc(C(=O)N2CCN(c3ncnc4[nH]ccc34)CC3(CC3)C2)no1: 100 to 1000 nM
- O=C(c1ccncc1)N1CCCN(c2ncnc3[nH]ccc23)CC12CC2: > 1000 nM

----------
# study_system: JAK2 (Homo sapiens, UniProt O60674)
# Construct: All four purified enzymes contain only the catalytic domain; His (N)
# Sequence (O60674 849-1124 limits assumed): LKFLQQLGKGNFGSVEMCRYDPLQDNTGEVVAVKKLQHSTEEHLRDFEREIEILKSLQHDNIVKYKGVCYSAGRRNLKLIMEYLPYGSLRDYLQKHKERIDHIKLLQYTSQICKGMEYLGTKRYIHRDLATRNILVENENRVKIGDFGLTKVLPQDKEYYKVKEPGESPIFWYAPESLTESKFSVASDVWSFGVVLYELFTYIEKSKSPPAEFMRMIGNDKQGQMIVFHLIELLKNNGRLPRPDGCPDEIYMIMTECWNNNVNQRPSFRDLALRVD
# protocol_text: JAK2 kinase assay (HTRF, inhibition of phosphorylation of a synthetic peptide)
# settings: catalytic domain, His-tag; 4 μM ATP (Km); read-out: JAK2 kinase inhibitory activity (EC50)
endpoint_label: EC50

• O=C(c1cn[nH]c1)N1CCN(c2ncnc3[nH]ccc23)CC2(CC2)C1 = 100 to 1000 nM
• N#C[C@@H]1CCCN1C(=O)N1CCN(c2ncnc3[nH]ccc23)CC2(CC2)C1 = < 100 nM
• Nc1nc(N2CCCN(Cc3ccccc3)C3(CC3)C2)c2cc[nH]c2n1 = > 1000 nM
• Cc1cc(C(=O)N2CCN(c3ncnc4[nH]ccc34)CC3(CC3)C2)ccn1 = > 1000 nM
• O=C(c1cc2ccccc2s1)N1CCN(c2ncnc3[nH]ccc23)CCC12CC2 = 100 to 1000 nM

----------
# study_system: TYK2 (Homo sapiens)
# Construct: JAK1 (aa 850-1154) and TYK2 (aa 871-1187) are expressed with an N-terminally fused GST-tag; GST (N)
# Sequence (P29597 871-1187): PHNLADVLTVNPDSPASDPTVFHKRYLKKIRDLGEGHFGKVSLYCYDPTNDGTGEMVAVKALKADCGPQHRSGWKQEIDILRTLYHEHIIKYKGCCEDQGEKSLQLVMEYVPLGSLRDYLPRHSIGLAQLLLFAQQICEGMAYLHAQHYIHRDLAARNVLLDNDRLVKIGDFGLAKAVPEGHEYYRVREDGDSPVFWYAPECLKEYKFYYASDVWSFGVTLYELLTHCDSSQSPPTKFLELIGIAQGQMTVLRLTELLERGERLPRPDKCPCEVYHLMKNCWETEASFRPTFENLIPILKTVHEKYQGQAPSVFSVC
# protocol_text: TYK2 kinase assay (HTRF, inhibition of phosphorylation of a synthetic peptide)
# settings: catalytic domain aa 871-1187, GST-tag; 13 μM ATP (Km); read-out: TYK2 kinase inhibitory activity (EC50)
# Description: JAK1, JAK2, JAK3 and TYK2 Kinase Assays: Human baculovirus-expressed JAK1, 2, 3 and TYK2 were purchased from Carna Biosciences, Inc. All four purified enzymes contain only the catalytic domain. […] Inhibition of phosphorylation of a synthetic peptide was measured in an HTRF-based assay using the TK substrate-Biotin from the CisbioHTRFKinEASE TK kit. […] The HTRF signal is read using an Envision plate reader.
endpoint_label: EC50

• Cc1c[nH]c(C(=O)N2CCCN(c3ncnc4[nH]ccc34)CC23CC3)c1 = 100 to 1000 nM
• N#Cc1ccc(CCC(=O)N2CCN(c3ncnc4[nH]ccc34)CC3(CC3)C2)cc1 = 100 to 1000 nM
• Cc1[nH]c(C(=O)N2CCCN(c3ncnc4[nH]ccc34)CC23CC3)cc1C#N = 100 to 1000 nM
• N#Cc1ccc(C(=O)N2CCCN(c3ncnc4[nH]ccc34)CC23CC3)cc1 = > 1000 nM
• NS(=O)(=O)c1ccc(CC(=O)N2CCN(c3ncnc4[nH]ccc34)CC3(CC3)C2)cc1 = 100 to 1000 nM
• COc1cc(S(N)(=O)=O)ccc1C(=O)N1CCN(c2ncnc3[nH]ccc23)CC2(CC2)C1 = > 1000 nM
• NS(=O)(=O)c1cc(C(=O)N2CCN(c3ncnc4[nH]ccc34)CC3(CC3)C2)cs1 = 100 to 1000 nM
• O=C(c1ccsn1)N1CCCN(c2ncnc3[nH]ccc23)CC12CC2 = 100 to 1000 nM
• Cc1ccc(CC(=O)N2CCN(c3ncnc4[nH]ccc34)CC3(CC3)C2)cc1 = 100 to 1000 nM
• O=C(Cc1ccc(Cl)cc1)N1CCN(c2ncnc3[nH]ccc23)CC2(CC2)C1 = 100 to 1000 nM
• N#CCCC(=O)N1CCCN(c2ncnc3[nH]ccc23)CC12CC2 = > 1000 nM
• CCCCS(=O)(=O)N1CCN(c2ncnc3[nH]ccc23)CC2(CC2)C1 = > 1000 nM
• O=C(Cc1ccc(Br)cc1)N1CCN(c2ncnc3[nH]ccc23)CC2(CC2)C1 = 100 to 1000 nM
• N#Cc1ccc(CC(=O)N2CCCN(c3ncnc4[nH]ccc34)CC23CC3)cc1 = > 1000 nM
• Nc1nc(N2CCCN(Cc3ccccc3)C3(CC3)C2)c2cc[nH]c2n1 = > 1000 nM
• CCCCC(=O)Nc1nc(N2CCCN(Cc3ccccc3)C3(CC3)C2)c2cc[nH]c2n1 = > 1000 nM
• CS(=O)(=O)Nc1ccc(C(=O)N2CCN(c3ncnc4[nH]ccc34)CC3(CC3)C2)cc1 = > 1000 nM
• NS(=O)(=O)c1csc(C(=O)N2CCN(c3ncnc4[nH]ccc34)CC3(CC3)C2)c1 = > 1000 nM
• Cc1ccc(S(=O)(=O)N2CC3(CC3)CN(c3ncnc4[nH]ccc34)CC2C)cc1 (stereo not shown) = > 1000 nM
• O=C(Cc1ccc(C(F)(F)F)cc1)N1CCN(c2ncnc3[nH]ccc23)CC2(CC2)C1 = 100 to 1000 nM
• Cc1c(S(N)(=O)=O)csc1C(=O)N1CCN(c2ncnc3[nH]ccc23)CC2(CC2)C1 = > 1000 nM
• CCCCN1CCCN(c2ncnc3[nH]ccc23)CC12CC2 = > 1000 nM
• N#Cc1ccc(C(=O)N2CCN(c3ncnc4[nH]ccc34)CC3(CC3)C2)s1 = 100 to 1000 nM
• CC1CN(c2ncnc3[nH]ccc23)CC2(CC2)CN1C(=O)c1ccccc1 (stereo not shown) = > 1000 nM
• N#CC1(C(=O)N2CCN(c3ncnc4[nH]ccc34)CC3(CC3)C2)CCOCC1 = > 1000 nM
• CCCc1csc(C(=O)N2CCN(c3ncnc4[nH]ccc34)CC3(CC3)C2)c1 = > 1000 nM
• CCCCC(=O)Nc1nc(N2CCCNC3(CC3)C2)c2cc[nH]c2n1 = > 1000 nM
• N#CCCC(=O)N1CCN(c2ncnc3[nH]ccc23)CCC12CC2 = > 1000 nM
• Cc1cc(CC(=O)N2CCN(c3ncnc4[nH]ccc34)CC3(CC3)C2)no1 = 100 to 1000 nM
• O=C(CCC(F)(F)F)N1CCN(c2ncnc3[nH]ccc23)CCC12CC2 = > 1000 nM
• CC1CN(c2ncnc3[nH]ccc23)CC2(CC2)CN1C(=O)CC1CCCC1 (stereo not shown) = > 1000 nM
• O=C(c1ccc[nH]1)N1CCCN(c2ncnc3[nH]ccc23)CC12CC2 = 100 to 1000 nM
• CCCCC(=O)Nc1nc(N2CCN(Cc3ccccc3)CC3(CC3)C2)c2cc[nH]c2n1 = > 1000 nM
• N#CC1(C(=O)N2CCN(c3ncnc4[nH]ccc34)CC3(CC3)C2)CCCC1 = > 1000 nM

----------
# study_system: JAK2 (Homo sapiens)
# Construct: All four purified enzymes contain only the catalytic domain; His (N)
# protocol_text: JAK2 kinase assay (HTRF, inhibition of phosphorylation of a synthetic peptide)
# settings: catalytic domain, His-tag; 4 μM ATP (Km); read-out: JAK2 kinase inhibitory activity (EC50)
endpoint_label: EC50

- CCCCN1CCCN(c2ncnc3[nH]ccc23)CC12CC2: 100 to 1000 nM
- O=C(Cc1ccccc1Cl)N1CCCN(c2ncnc3[nH]ccc23)CC12CC2: 100 to 1000 nM
- NS(=O)(=O)CCCC(=O)N1CCN(c2ncnc3[nH]ccc23)CC2(CC2)C1: < 100 nM
- O=C(c1ccccc1Cl)N1CCCN(c2ncnc3[nH]ccc23)CC12CC2: 100 to 1000 nM
- O=C(c1cccc(O)n1)N1CCCN(c2ncnc3[nH]ccc23)CC12CC2: 100 to 1000 nM

Reference source for all entries: patent US9586961B2
